Biological target: T1, human GIP receptor (human, UniProt P48546 22-466)
T1 sequence (looked up): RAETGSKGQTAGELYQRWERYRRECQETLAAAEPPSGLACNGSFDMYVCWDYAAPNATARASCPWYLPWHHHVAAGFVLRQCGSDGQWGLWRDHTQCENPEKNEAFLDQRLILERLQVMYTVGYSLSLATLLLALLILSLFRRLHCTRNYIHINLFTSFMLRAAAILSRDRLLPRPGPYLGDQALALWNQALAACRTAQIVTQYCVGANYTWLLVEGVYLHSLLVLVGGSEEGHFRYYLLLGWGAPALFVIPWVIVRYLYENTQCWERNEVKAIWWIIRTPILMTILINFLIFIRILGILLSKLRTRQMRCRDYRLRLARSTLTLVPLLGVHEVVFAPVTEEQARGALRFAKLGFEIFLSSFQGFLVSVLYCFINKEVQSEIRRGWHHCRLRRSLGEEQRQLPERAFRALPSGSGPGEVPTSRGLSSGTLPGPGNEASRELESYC
Assay: cell-based or functional assay
Exercise: for every item that follows, state its recorded cAMP EC50 (1.0% HSA).
Numbers only, in pM.

Binder	Readout name	Observed measurement
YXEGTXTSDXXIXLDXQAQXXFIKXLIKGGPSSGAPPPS (Y-Aib-EGT-αMeF(2F)-TSD-4Pal-Aib-I-αMeL-LD-Orn-QAQ-Aib-Orn-FIK((2-[2-(2-Amino-ethoxy)-ethoxy]-acetyl)-Trx-(γ-Glu)-(10-(4-carboxyphenoxy)decanoyl))-αMeY-LIK(((2-[2-(2-Amino-ethoxy)-ethoxy]-acetyl)-Trx-(γ-Glu)-(10-(4-carboxyphenoxy)decanoyl))GGPSSGAPPPS-NH2)) [Example 473]	cAMP EC50 (1.0% HSA)	979

Quick request: cAMP EC50 (1.0% HSA) for each listed item, please.
1. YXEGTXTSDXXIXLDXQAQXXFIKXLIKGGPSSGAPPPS (Y-Aib-EGT-αMeF(2F)-TSD-4Pal-Aib-I-αMeL-LD-Orn-QAQ-Aib-Orn-FIK((2-[2-(2-Amino-ethoxy)-ethoxy]-acetyl)-(γ-Glu)3-CO-(CH2)12-CO2H)-αMeY-LIK((2-[2-(2-Amino-ethoxy)-ethoxy]-acetyl)-(γ-Glu)3-CO-(CH2)12-CO2H)GGPSSGAPPPS-NH2) [Example 486]
2. YXEGTXTSDYXIXLDXIAQXXFIKXLIKGGPSSGAPPPS (Y-Aib-EGT-αMeF(2F)-TSDY-Aib-I-αMeL-LD-Orn-IAQ-Aib-Orn-FIK((2-[2-(2-Amino-ethoxy)-ethoxy]-acetyl)3-(γ-Glu)--(10-(4-carboxyphenoxy)decanoyl))-αMeY-LIK((2-[2-(2-Amino-ethoxy)-ethoxy]-acetyl)3-(γ-Glu)--(10-(4-carboxyphenoxy)decanoyl))GGPSSGAPPPS-NH2) [Example 481]
3. YXEGTXTSDXXIXLDXKAQXTFIXXLIKGGPSSGAPPPS (Y-Aib-EGT-αMeF(2F)-TSD-4Pal-Aib-I-αMeL-LD-Orn-K((2-[2-(2-Amino-ethoxy)-ethoxy]-acetyl)2-(γ-Glu)-CO-(CH2)10-CH3)AQ-Aib-TFI-(D-Glu)-αMeY-LIK((2-[2-(2-Amino-ethoxy)-ethoxy]-acetyl)2-(γ-Glu)-CO-(CH2)10-CH3)GGPSSGAPPPS-NH2) [Example 419]
4. YXEGTXTSDXXIXLDXKAQXEXIXXLIEGGPSSGAPPPSK (not fully specified; Y-Aib-EGT-αMeF(2F)-TSD-4Pal-Aib-I-αMeL-LD-Orn-K((2-[2-(2-Amino-ethoxy)-ethoxy]-acetyl)2-(γ Glu)-CO-(CH2)10C3)AQ-Aib-E-αMeF-I-(D-Glu)-αMeY-LIEGGPSSGAPPPSK((2-[2-(2-Amino-ethoxy)-ethoxy]-acetyl)2-(γ-Glu)-CO-(CH2)10-CH3)-NH2) [Example 431]
5. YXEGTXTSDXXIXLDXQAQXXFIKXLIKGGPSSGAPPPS (not fully specified; Y-Aib-EGT-αMeF(2F)-TSD-4Pal-Aib-I-αMeL-LD-Orn-QAQ-Aib-Orn-FIK((2-[2-(2-Amino-ethoxy)-ethoxy]-acetyl)-Ahx-(γ-Glu)-CO-(CH2)12-CO2)-αMeY-LIK((2-[2-(2-Amino-ethoxy)-ethoxy]-acetyl)-Ahx-(γ-Glu)-CO-(CH2)12-CO2)GGPSSGAPPPS-NH2) [Example 449]

[239, 467, 440, 645, 595]

The reported numbers originate from patent US20230265151A1.
